system: Ceratitis capitata; assay: Insecticidal activity against adult Ceratitis capitata assessed as mortality at 10 ug/fly measured every 24 hr for 10 days relative to control; type: functional
propertyMeasured: mortality (%)
Report as a plain number; the unit % is understood.

Examples from the recorded data:
[[record]]
compound = "C=C1Cc2ccc3[nH]c4c5c3c2[C@H]2[C@@H]1C[C@H]2C(C)(C)O[C@H]5[C@]1(O)CC[C@@]2(O)C3=C[C@@H](O)[C@@H](C(=C)C)O[C@H]3CC[C@]2(C)[C@@]41C"
unitabbreviation = "%"
recordednumber = 0

[[record]]
compound = "C=C1Cc2c(Cl)cc3[nH]c4c5c3c2[C@H]2[C@@H]1C[C@@H]2C(C)(C)O[C@H]5[C@@H]1CC[C@@]2(O)C3=C[C@@H](O)[C@@H](C(=C)C)O[C@H]3CC[C@]2(C)[C@@]41C"
unitabbreviation = "%"
recordednumber = 73.3

[[record]]
compound = "C=C1Cc2ccc3[nH]c4c5c3c2[C@H]2[C@@H]1C[C@@H]2C(C)(C)O[C@H]5[C@@H]1CC[C@@]2(O)[C@@]35O[C@@H]3[C@@H](O)[C@@H](C(=C)C)O[C@H]5CC[C@]2(C)[C@@]41C"
unitabbreviation = "%"
recordednumber = 50

[[record]]
compound = "C=C(C)[C@H]1O[C@H]2CC[C@@]3(C)[C@@](O)(CC[C@H]4[C@@H]5OC(C)(C)[C@H]6C[C@@H]7C(=C)Cc8c(Cl)cc9[nH]c(c5c9c8[C@@]76O)[C@@]43C)[C@@]23O[C@H]3[C@H]1O"
unitabbreviation = "%"
recordednumber = 59.7

[[record]]
compound = "C=C1Cc2c(Cl)cc3[nH]c4c5c3c2[C@H]2[C@@H]1C[C@@H]2C(C)(C)O[C@H]5[C@@H]1CC[C@@]2(O)[C@@]35O[C@@H]3[C@@H](O)[C@@H](C(=C)C)O[C@H]5CC[C@]2(C)[C@@]41C"
unitabbreviation = "%"
recordednumber = 66.6


Moving on to another compound below.
Ask: Could you share which mortality value was measured for C=C1Cc2ccc3[nH]c4c5c3c2[C@H]2[C@@H]1C[C@H]2C(C)(C)O[C@H]5[C@@H]1CC[C@@]2(O)C3=C[C@@H](O)[C@@H](C(=C)C)O[C@H]3CC[C@]2(C)[C@@]41C ?
Reply: 41.7

Measured values drawn from ChEMBL document CHEMBL3046222 for this set.
